The reported measurements were obtained from patent US8394821B2.

test: Evaluation of solubility (37° C., 30 min, HPLC)
Assay type: physicochemical
experimental-conditions: pH 6.8, aqueous buffer, thermodynamic from solid, Japanese Pharmacopoeia disintegration test solution No. 2, 37° C., read-out: JP2 (Solubility (μg/mL))
observable: solubility at 30 min (µg/mL)

>  <compound>
CN1CCc2nc(C(=O)N[C@@H]3C[C@@H](C(=O)N(C)C)CC[C@@H]3NC(=O)C(=O)Nc3ccc(Cl)cn3)sc2C1 [Compound A]

>  <numeric-value>
49.8

$$$$

====

test: Evaluation of solubility (37° C., 30 min, HPLC)
Type: physicochemical
experimental-conditions: thermodynamic from solid, water, 37° C., read-out: Water (Solubility (μg/mL))

>  <smiles-text>
CN1CCc2nc(C(=O)N[C@@H]3C[C@@H](C(=O)N(C)C)CC[C@@H]3NC(=O)C(=O)Nc3ccc(Cl)cn3)sc2C1

>  <output-unit>
µg/mL

>  <solubility at 30 min>
47.5

$$$$
